meta.source: patent US9249097B2

Tested on: production of PGE2
Assay: Inhibition of PGE2 production in IL-1β-stimulated A549 cells (EIA)
Type: cell-based
Conditions: Homo sapiens, IL-1β 1 ng/ml, 22 hours
// assign yes (1) if IC50 falls strictly below 1000 nM, else no (0) (ties count as no (0))

Observe how each entry below is paired with its result.
[
  {
    "COMPOUND": "CC(C)(O)Cn1c2ccccc2c2cc(NC(=O)c3ccccc3C(F)(F)F)ccc21",
    "ASSIGNED LABEL": "no (0)"
  },
  {
    "COMPOUND": "CC(=O)Cn1c2ccccc2c2cc(NC(=O)c3ccccc3C(F)(F)F)ccc21",
    "ASSIGNED LABEL": "no (0)"
  },
  {
    "COMPOUND": "CC(C)(O)CCn1c2ccccc2c2cc(NC(=O)c3ccccc3Cl)ccc21",
    "ASSIGNED LABEL": "yes (1)"
  },
  {
    "COMPOUND": "COc1ccc2c(c1)c(CC(=O)O)c(C)n2C(=O)c1ccc(Cl)cc1 [Indomethacin, indomethacin, reference compound]",
    "ASSIGNED LABEL": "yes (1)"
  },
  {
    "COMPOUND": "CC(C)(O)CCn1c2ccccc2c2cc(NC(=O)c3ccccc3C(F)(F)F)ccc21",
    "ASSIGNED LABEL": "no (0)"
  }
]

Let's switch to this compound now.
## Task Determine if O=C(Nc1ccc2c(c1)c1ccccc1n2CCO)c1ccccc1C(F)(F)F shows IC50 strictly lower than 1000 nM.
## Result no (0)

* * *

Assay: Metabolic stability in human hepatic microsomes
Conditions: human, microsomes, 1 h, 1 μM, pH 7.4
READOUT TYPE: % unmetabolized compound, Man

[
  {
    "COMPOUND": "CC(C)(O)CCn1c2ccccc2c2cc(NC(=O)c3ccccc3C(F)(F)F)ccc21",
    "RECORDED VALUE": "77%"
  },
  {
    "COMPOUND": "O=C(Nc1ccc2c(c1)c1ccccc1n2CCO)c1ccccc1C(F)(F)F",
    "RECORDED VALUE": "81%"
  },
  {
    "COMPOUND": "CC(C)(O)CCn1c2ccccc2c2cc(NC(=O)c3ccccc3Cl)ccc21",
    "RECORDED VALUE": "65%"
  },
  {
    "COMPOUND": "CC(=O)Cn1c2ccccc2c2cc(NC(=O)c3ccccc3C(F)(F)F)ccc21",
    "RECORDED VALUE": "7%"
  },
  {
    "COMPOUND": "O=C(Nc1ccc2c(c1)c1ccccc1n2CCO)c1ccccc1Cl",
    "RECORDED VALUE": "76%"
  }
]

Value sought for every listed compound: % unmetabolized compound, Man.
1. CC(=O)CC(c1ccccc1)c1c(O)c2ccccc2oc1=O (stereo not shown) [Warfarin, warfarin, reference compound]
2. CC(C)(O)Cn1c2ccccc2c2cc(NC(=O)c3ccccc3C(F)(F)F)ccc21

## Result
1: 103%; 2: 82%

* * *

For each entry below, report its % unmetabolized compound, Rat value.
Test: Metabolic stability in rat hepatic microsomes
Conditions: Sprague-Dawley, rat, microsomes, 1 h, 1 μM, pH 7.4
Give bare numbers, in %.

[
  {
    "COMPOUND": "O=C(Nc1ccc2c(c1)c1ccccc1n2CCO)c1ccccc1C(F)(F)F",
    "RESULT UNITS": "%",
    "% unmetabolized compound, Rat": 58
  }
]

Value sought for every listed compound: % unmetabolized compound, Rat.
1. CC(=O)CC(c1ccccc1)c1c(O)c2ccccc2oc1=O (stereo not drawn) [Warfarin, warfarin, reference compound]
2. O=C(Nc1ccc2c(c1)c1ccccc1n2CCO)c1ccccc1Cl

## Result
[97, 63]
